measurement-target: human prostanoid EP4 receptor (Homo sapiens, UniProt P35408)
Construct: expressed in transfected cells
Sequence (P35408 whole entry): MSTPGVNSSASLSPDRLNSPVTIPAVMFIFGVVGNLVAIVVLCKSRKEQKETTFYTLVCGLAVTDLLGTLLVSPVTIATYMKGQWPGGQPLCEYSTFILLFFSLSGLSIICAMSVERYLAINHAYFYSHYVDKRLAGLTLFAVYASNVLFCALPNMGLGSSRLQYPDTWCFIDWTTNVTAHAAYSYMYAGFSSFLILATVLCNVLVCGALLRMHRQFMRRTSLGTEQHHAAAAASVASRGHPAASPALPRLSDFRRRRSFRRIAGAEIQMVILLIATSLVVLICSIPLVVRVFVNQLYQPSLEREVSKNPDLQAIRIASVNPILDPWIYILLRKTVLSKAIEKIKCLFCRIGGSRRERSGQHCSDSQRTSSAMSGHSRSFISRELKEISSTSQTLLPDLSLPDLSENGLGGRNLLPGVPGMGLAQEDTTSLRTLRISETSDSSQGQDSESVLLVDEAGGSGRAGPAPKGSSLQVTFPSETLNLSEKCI
run-description: FLIPR Ca2+ signaling PG antagonist assay, EP4 stable cell line
Format: cell-based
applied-conditions: HEK-293 EBNA cells, human recombinant EP4 with chimeric Gqs; standard agonist PGE2
Kb listing for selected compounds.
Output spec: scalar in nM, unitless text.

In [3]: df
Out[3]:
                                   compound                        measurement_target  measured_quantity  observed
0  CC(C)COc1ccc(Cl)cc1Cn1ncc2c(C(=O)O)cccc21 [Example 36]  human prostanoid EP4 receptor (Homo sapiens, UniProt P35408)                 Kb      1200
1  O=C(O)c1ccc2c(cnn2Cc2cc(Br)ccc2OCC2CCCC2)c1 [Example 14]  human prostanoid EP4 receptor (Homo sapiens, UniProt P35408)                 Kb        15
2  CC1(COc2ccc(Br)cc2Cn2ncc3cc(C(=O)O)ccc32)CC1 [Example 19]  human prostanoid EP4 receptor (Homo sapiens, UniProt P35408)                 Kb        14
3  CCC(CC)COc1ccc(Br)cc1Cn1cnc2cc(C(=O)O)ccc21 [Example 78]  human prostanoid EP4 receptor (Homo sapiens, UniProt P35408)                 Kb        35
4  O=C(O)c1ccc2c(cnn2Cc2cc(C(F)(F)F)ccc2OCC2CCCC2)c1 [Example 33]  human prostanoid EP4 receptor (Homo sapiens, UniProt P35408)                 Kb        30

[ask] Which Kb is reported for this compound? O=C(O)c1cccc2nn(Cc3cc(Cl)ccc3OCC3CC3)cc12 [Example 35]
[reply] 670

[ask] Look up Kb for this compound: CC(C)COc1ccc(OC(F)F)cc1Cn1ncc2cc(C(=O)O)ccc21 [Example 56]
[reply] 150

[ask] What does the record list as Kb for CC(C)COc1ccc(OCC(F)F)cc1Cn1ncc2cc(C(=O)O)ccc21 [Example 55] ?
[reply] 2100

[ask] Fill in the blank: the reported Kb of CC(C)COc1ccc(OC(F)(F)F)cc1Cn1ncc2cc(C(=O)O)cnc21 [Example 58] is ____.
[reply] 380

* * *

measurement-target: human prostanoid EP3 receptor (Homo sapiens)
Construct: expressed in transfected cells
Sequence (P43115 1-390): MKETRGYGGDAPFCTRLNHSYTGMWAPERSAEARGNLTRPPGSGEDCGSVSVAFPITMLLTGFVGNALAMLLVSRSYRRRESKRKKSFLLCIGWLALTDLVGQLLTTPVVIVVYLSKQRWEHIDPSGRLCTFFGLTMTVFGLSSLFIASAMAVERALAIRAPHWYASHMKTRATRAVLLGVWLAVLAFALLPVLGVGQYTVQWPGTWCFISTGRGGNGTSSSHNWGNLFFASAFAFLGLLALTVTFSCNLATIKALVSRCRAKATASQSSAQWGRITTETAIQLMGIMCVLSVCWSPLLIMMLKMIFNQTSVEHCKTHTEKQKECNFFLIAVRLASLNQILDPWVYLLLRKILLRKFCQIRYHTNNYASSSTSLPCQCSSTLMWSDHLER
run-description: FLIPR Ca2+ signaling PG antagonist assay, EP3 stable cell line
Format: cell-based
applied-conditions: HEK-293 EBNA cells, human recombinant EP3 with chimeric Gqi; standard agonist PGE2
measured-quantity: Kb (µM)
Give the value in µM but do not write µM after it.

Below, each entry is followed by its recorded Kb result.
In [3]: df
Out[3]:
                                   compound  observed
0  CCC(CC)COc1ccc(Cl)cc1Cn1nc(C)c2cc(C(=O)O)ccc21 [Example 23]       1.2
1  CCC(CC)COc1ccc(Cl)cc1Cn1ncc2c(C(=O)O)cccc21 [Example 38]       1.7
2  CC(C)COc1ccc(Cl)cc1Cn1ncc2c(C(=O)O)cccc21 [Example 36]         4

[ask] Item under review: CC(C)COc1ccc(C(F)(F)F)cc1Cn1ncc2cc(C(=O)O)ccc21 [Example 18] . Reported Kb?
[reply] 4

[ask] Report Kb for Cc1nn(Cc2cc(Br)ccc2OCC2(C)CC2)c2ccc(C(=O)O)cc12 [Example 28] please.
[reply] 2.22

[ask] What value of measured Kb is listed for CC(C)COc1ccc(Cl)cc1Cn1cc2c(C(=O)O)cccc2n1 [Example 37] ?
[reply] 3.4

[ask] Looking for the measured Kb of CCC(CC)COc1ccc(C(F)(F)F)cc1Cn1nc(C)c2cc(C(=O)O)ccc21 [Example 26] , can you help?
[reply] 3.3

[ask] Param item = O=C(O)c1ccc2c(cnn2Cc2cc(Br)ccc2OCc2ccc(Cl)cc2)c1 [Example 13] ; retrieve measured Kb.
[reply] 8.5

[ask] Please report the recorded Kb for CCC(CC)COc1ccc(Cl)cc1Cn1ncc2cc(C(=O)O)ncc21 [Example 63] .
[reply] 7.4

[ask] Any idea what Kb was measured for CCC(CC)Oc1ccc(Br)cc1Cn1ncc2cc(C(=O)O)ccc21 [Example 51] ?
[reply] 2.6

[ask] Record request: Kb value, item CC(C)(C)COc1ccc(Br)cc1Cn1ncc2cc(C(=O)O)ccc21 [Example 52]
[reply] 2.1

[ask] Quick check: Kb of CCC(CC)COc1ccc(Cl)cc1Cn1ncc2cc(C(=O)O)ccc21 [Example 2] ?
[reply] 1.1

[ask] Please report the recorded Kb for CC(C)COc1ccc(Br)cc1Cn1ncc2ccc(C(=O)O)cc21 [Example 42] .
[reply] 1.9

[ask] Requested read-out: Kb. Entry: Cc1nn(Cc2cc(Br)ccc2OCC(C)C)c2ccc(C(=O)O)cc12 [Example 21]
[reply] 2.2

Recorded values, source patent US10988474B2.
